Origin of values: paper PMC8040252

- testSummary: In vitro hepatic metabolic stability in MLS9 fraction with NADPH
- Format: in vitro ADME, mouse
- conditionContext: after 1 h of incubation
recordedEndpoint: MLS9 stability (residual substrate) (% ^b)

>>> measured("Cc1noc(-c2cnn(-c3ccc(NC(=O)c4ccc(C#N)c(F)c4)cc3)c2C(F)(F)F)n1")
73
>>> measured("Cc1ccc(S(=O)(=O)Nc2ccc(-n3ncc(-c4nc(C)no4)c3C(F)(F)F)cc2)cc1")
76
>>> measured("CCCCCC(=O)Nc1ccc(-n2ncc(-c3nc(C)no3)c2C(F)(F)F)cc1")
91
>>> measured("Cc1noc(-c2cnn(-c3ccc(NC(=O)c4c(C)noc4C)cc3)c2C(F)(F)F)n1")
99

---

- testSummary: MTT cell viability assay in HEK cells
- Type: cell-based, human
- conditionContext: human, mean ± SEM
- Protocol: With this approach, 24 oxadiazole-bearing pyrazoles were synthesized and tested in human embryonic kidney (HEK) cells for SOCE inhibition. To this aim, intracellular Ca^2+ stores of HEK cells were emptied with t-butylhydroquinone (tBhQ, 50 μM) in the presence of the compounds at 10 μM concentration. After 600 s, Ca^2+ was added and intracellular levels were measured in fluorescence microscopy with the calcium dye Fura-2. […] For these compounds, the cell viability was therefore evaluated. […]
recordedEndpoint: viability at 24 h, 10 µM (%)
# number only, unit % dropped from output

>>> measured("Cc1noc(-c2cnn(-c3ccc(NC(=O)c4c(F)cccc4F)cc3)c2C(F)(F)F)n1")
95.6

Asked: Field request: viability at 24 h, 10 µM | item: COc1ccc(OC)c(-c2ccc(NC(=O)c3ccncc3F)cc2)c1 [Synta66, reference compound]
Given back: 75.8

Asked: Field request: viability at 24 h, 10 µM | item: "Cc1noc(-c2cnn(-c3ccc(NC(=O)c4ccc5nc[nH]c5c4)cc3)c2C(F)(F)F)n1"
Given back: 56.5

Asked: Field request: viability at 24 h, 10 µM | item: "Cc1ccc(S(=O)(=O)Nc2ccc(-n3ncc(-c4nc(C)no4)c3C(F)(F)F)cc2)cc1"
Given back: 79.4

Asked: Field request: viability at 24 h, 10 µM | item: "Cc1noc(-c2cnn(-c3ccc(NC(=O)c4c(C)noc4C)cc3)c2C(F)(F)F)n1"
Given back: 77.7

Asked: Field request: viability at 24 h, 10 µM | item: "Cc1noc(-c2cnn(-c3ccc(NC(=O)c4ccc(Cl)cc4)cc3)c2C(F)(F)F)n1"
Given back: 72.9

Asked: Field request: viability at 24 h, 10 µM | item: "Cc1noc(-c2cnn(-c3ccc(NC(=O)c4snnc4C)cc3)c2C(F)(F)F)n1"
Given back: 59.1

Asked: Field request: viability at 24 h, 10 µM | item: "Cc1noc(-c2cnn(-c3ccc(NC(=O)c4ccc(C#N)c(F)c4)cc3)c2C(F)(F)F)n1"
Given back: 101

Asked: Field request: viability at 24 h, 10 µM | item: CCOC(=O)c1cnn(-c2ccc(NC(=O)C(Cl)=C(Cl)Cl)cc2)c1C(F)(F)F [Pyr3, reference compound]
Given back: 28.6

Asked: Field request: viability at 24 h, 10 µM | item: CCCC(C)OC(=O)c1cnn(-c2ccc(-n3cc(-c4cccc(C(=O)O)c4)nn3)cc2)c1C(F)(F)F (centres unmarked) [CIC-37, reference compound]
Given back: 93.6

Asked: Field request: viability at 24 h, 10 µM | item: "Cc1noc(-c2cnn(-c3ccc(NC(=O)c4ccc([N+](=O)[O-])cc4)cc3)c2C(F)(F)F)n1"
Given back: 80.2
